Reference source for all entries: paper PMC12472494

- System: strychnine-induced seizures
- assay remarks: Strychnine-induced seizure model
- Type: in vivo, mice
- recorded conditions: oral dose 1.0 mg/kg 60 min before strychnine 1.5 mg/kg s.c.; mean ± SD, N = 10
Reported Duration of Tremor and Seizures values for a set of molecules
readout kind: Duration of Tremor and Seizures (min)

>  <molecule>
COc1cc(Br)c(C2NCCc3cc(OC)c(OC)cc32)cc1OC (stereo not drawn)

>  <assayed target>
strychnine-induced seizures

>  <readout kind>
Duration of Tremor and Seizures

>  <value reported>
0.14

$$$$
>  <molecule>
COc1cc2c(cc1OC)C(c1ccccc1)NCC2 (stereo not drawn)

>  <assayed target>
strychnine-induced seizures

>  <readout kind>
Duration of Tremor and Seizures

>  <value reported>
0.43

$$$$
>  <molecule>
COc1cc2c(cc1OC)C(c1ccccc1Br)NCC2 (stereo not drawn)

>  <assayed target>
strychnine-induced seizures

>  <readout kind>
Duration of Tremor and Seizures

>  <value reported>
0.31

$$$$
>  <molecule>
COc1cc2c(cc1OC)C(c1ccccc1Cl)NCC2 (stereo not drawn)

>  <assayed target>
strychnine-induced seizures

>  <readout kind>
Duration of Tremor and Seizures

>  <value reported>
0.60

$$$$
>  <molecule>
COc1cc2c(cc1OC)C(c1cc(OC)c(OC)cc1[N+](=O)[O-])NCC2 (stereo not drawn)

>  <assayed target>
strychnine-induced seizures

>  <readout kind>
Duration of Tremor and Seizures

>  <value reported>
0.51

$$$$
>  <molecule>
COc1cc2c(cc1OC)C(c1cc(Br)ccc1O)NCC2 (stereo not drawn)

>  <assayed target>
strychnine-induced seizures

>  <readout kind>
Duration of Tremor and Seizures

>  <value reported>
0.61

$$$$
>  <molecule>
COc1cc2c(cc1OC)C(c1cc3c(cc1Cl)OCO3)NCC2 (stereo not drawn)

>  <assayed target>
strychnine-induced seizures

>  <readout kind>
Duration of Tremor and Seizures

>  <value reported>
0.59

$$$$
>  <molecule>
COc1cc2c(cc1OC)C(c1ccc(O)cc1)NCC2 (stereo not drawn)

>  <assayed target>
strychnine-induced seizures

>  <readout kind>
Duration of Tremor and Seizures

>  <value reported>
0.57

$$$$
>  <molecule>
COc1cc(C2NCCc3cc(OC)c(OC)cc32)ccc1O (stereo not drawn)

>  <assayed target>
strychnine-induced seizures

>  <readout kind>
Duration of Tremor and Seizures

>  <value reported>
0.52

$$$$
>  <molecule>
COc1cc2c(cc1OC)C(c1cccc(Br)c1)NCC2 (stereo not drawn)

>  <assayed target>
strychnine-induced seizures

>  <readout kind>
Duration of Tremor and Seizures

>  <value reported>
0.35

$$$$
>  <molecule>
COc1cc2c(cc1OC)C(c1cc(Br)c(O)c(OC)c1)NCC2 (stereo not drawn)

>  <assayed target>
strychnine-induced seizures

>  <readout kind>
Duration of Tremor and Seizures

>  <value reported>
0.34

$$$$
>  <molecule>
COc1cc2c(cc1OC)C(c1ccc([N+](=O)[O-])cc1)NCC2 (stereo not drawn)

>  <assayed target>
strychnine-induced seizures

>  <readout kind>
Duration of Tremor and Seizures

>  <value reported>
0.51

$$$$
>  <molecule>
COc1cc2c(cc1OC)C(c1ccc(Br)cc1)NCC2 (stereo not drawn)

>  <assayed target>
strychnine-induced seizures

>  <readout kind>
Duration of Tremor and Seizures

>  <value reported>
0.50

$$$$
>  <molecule>
COc1ccc(C2NCCc3cc(OC)c(OC)cc32)cc1 (stereo not drawn)

>  <assayed target>
strychnine-induced seizures

>  <readout kind>
Duration of Tremor and Seizures

>  <value reported>
0.54

$$$$
>  <molecule>
COc1cc2c(cc1OC)C(c1ccc(Cl)cc1)NCC2 (stereo not drawn)

>  <assayed target>
strychnine-induced seizures

>  <readout kind>
Duration of Tremor and Seizures

>  <value reported>
0.23

$$$$
>  <molecule>
COc1cc2c(cc1OC)C(c1ccc(N)cc1)NCC2 (stereo not drawn)

>  <assayed target>
strychnine-induced seizures

>  <readout kind>
Duration of Tremor and Seizures

>  <value reported>
0.34

$$$$
>  <molecule>
COc1cc2c(cc1OC)C(c1cccc(OC)c1[N+](=O)[O-])NCC2 (stereo not drawn)

>  <assayed target>
strychnine-induced seizures

>  <readout kind>
Duration of Tremor and Seizures

>  <value reported>
0.60

$$$$
>  <molecule>
COc1cc2c(cc1OC)C(c1ccccc1O)NCC2 (stereo not drawn)

>  <assayed target>
strychnine-induced seizures

>  <readout kind>
Duration of Tremor and Seizures

>  <value reported>
0.29

$$$$
